biological target: Ag85A (Mycobacterium tuberculosis); format: biochemical; settings: ratio of peak height of mono-hexanoyl ester of labelled/derivatised Tre to peak height of labelled/derivatised Tre; 500 μM di-hexanoyl ester, 500 μM substrate, 100 nM enzyme, 1 mM TEA pH 7.2, 37° C; compound 1 (Tre) = 100
Sequence (P9WQP3 44-338): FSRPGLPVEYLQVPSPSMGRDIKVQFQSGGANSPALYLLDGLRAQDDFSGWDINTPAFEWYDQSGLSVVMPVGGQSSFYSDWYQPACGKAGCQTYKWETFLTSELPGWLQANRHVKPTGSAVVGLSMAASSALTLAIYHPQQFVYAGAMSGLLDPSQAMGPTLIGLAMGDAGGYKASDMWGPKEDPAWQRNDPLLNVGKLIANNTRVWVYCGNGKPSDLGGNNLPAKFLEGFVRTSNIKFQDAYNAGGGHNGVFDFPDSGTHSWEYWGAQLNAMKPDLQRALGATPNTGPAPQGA
Property: Relative substrate response towards transesterification, Ag85A
Just the number, please, no unit after it.

C[C@]1(O[C@H]2OC(CO)[C@@H](O)C(O)C2O)OC(CO)[C@H](O)C(O)C1O (some centres unmarked) [Compound 4]
12
OCC1O[C@H](O[C@H]2OC(CO)[C@@H](O)C(O)C2F)C(F)C(O)[C@@H]1O (some centres unmarked) [Compound 13]
66
C[C@]1(O[C@H]2OC(CO)[C@@H](O)C(F)C2O)OC(CO)[C@@H](O)C(O)C1O (some centres unmarked) [Compound 6]
7
[N-]=[N+]=NCC1O[C@H](O[C@H]2OC(CO)[C@@H](O)C(O)C2O)C(O)C(O)[C@@H]1O (stereo partly drawn) [Compound 18, 6-Azido-D-trehalose]
37
OCC1O[C@H](O[C@H]2OC(CF)[C@@H](O)C(O)C2O)C(O)C(O)[C@@H]1O (some centres unmarked) [Compound 20]
149

Problem: Need Relative substrate response towards transesterification, Ag85A, item OCC1O[C@H](O[C@@H]2OC(CO)[C@@H](O)C(O)C2F)C(F)C(O)[C@@H]1O (some centres unmarked) [Compound 14]
Solution: 7

Problem: Entry OC[C@H]1O[C@H](O[C@H]2O[C@H](CO)[C@@H](O)[C@H](O)[C@H]2O)[C@H](O)[C@@H](O)[C@@H]1O [Compound 1, trehalose, reference compound] please
Solution: 100

Problem: Entry OC[C@H]1O[C@H](O[C@H]2O[C@H](CO)[C@H](F)[C@H](O)[C@H]2O)[C@H](O)[C@@H](O)[C@@H]1O [Compound 21] please
Solution: 229

Problem: Entry COP(=O)(O)OCC1O[C@H](O[C@H]2OC(CO)[C@@H](O)C(O)C2O)C(O)C(O)[C@@H]1O (stereo partly drawn) [Compound 16, 6-O-monomethoxyphosphoryl-D-trehalose] please
Solution: 37

Problem: Entry OCC1O[C@H](O[C@H]2OC(CBr)[C@@H](O)C(O)C2O)C(O)C(O)[C@@H]1O (some centres unmarked) [Compound 19] please
Solution: 102

Problem: Entry OCC1O[C@H](O[C@H]2OC(CO)[C@@H](O)C(O)C2I)C(I)C(O)[C@@H]1O (some centres unmarked) [Compound 12] please
Solution: 148

Problem: Entry O=P1(O)OCC2O[C@H](O[C@H]3OC(CO)[C@@H](O)C(O)C3O)C(O)C(O)[C@@H]2O1 (stereo partly drawn) [Compound 17, 4,6-(monohydrogen)phosphoryl-D-trehalose] please
Solution: 18

Problem: Entry C[C@]1(O[C@H]2OC(CO)[C@@H](O)C(O)C2NC(=S)Nc2ccc(-c3c4ccc(=O)cc-4oc4cc(O)ccc34)c(C(=O)O)c2)OC(CO)[C@@H](O)C(O)C1O (some centres unmarked) [Compound 9] please
Solution: 229

Problem: Entry OCC1O[C@H](O[C@@H]2CC(O)[C@@H](O)C(CO)O2)CC(O)[C@H]1O (some centres unmarked) [Compound 11] please
Solution: 1
